- TARGET OF ASSAY: human PD-1-Fc (R and D systems, Minneapolis, Minn.) (human, UniProt Q15116 25-167)
- Sequence (Q15116 25-167): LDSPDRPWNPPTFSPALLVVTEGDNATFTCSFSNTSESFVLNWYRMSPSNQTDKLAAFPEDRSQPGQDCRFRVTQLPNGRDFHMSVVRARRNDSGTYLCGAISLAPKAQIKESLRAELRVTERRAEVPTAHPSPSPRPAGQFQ
- ASSAY NOTES: inhibition ELISA; hPDL-2 Fc blockade
pIC50: −log10 of the molar value.

BINDER: Ba2 (antibody, V domains shown) VH: QVQLVQSGAEVKKPGASVKMSCKASGYTFTDYYMDWVRQAPGQGLEWIGYIYPKNGGSSYAQKFQGRATLTVDTSTSTAYMELSSLRSEDTAVYYCARKVVATDYWGQGTLLTVSS VL: DIQMTQSPSSLSASVGDRVTMTCKSSQSLLYSSNQKNYLAWYQQKPGKAPKLLIFWASIRESGVPSRFSGSGSGTDFTLTISSVQPEDFATYYCQQSDSYPWTFGQGTKLEIKR
pIC50: 8.92
--
BINDER: Bb2 (antibody, V domains shown) VH: QVQLVQSGAEVKKPGASVKMSCKASGYTFTDYYMDWVRQAPGQGLEWIGYIYPKNGGSSYAQKFQGRATLTVDKSTSTAYMELSSLRSEDTAVYYCARKVVATDYWGQGTLLTVSS VL: DIQMTQSPSSLSASVGDRVTMTCKSSQSLLYSSNQKNYLAWYQQKPGKAPKLLIFWASIRESGVPSRFSGSGSGTDFTLTISSVQPEDFATYYCQQSDSYPWTFGQGTKLEIKR
pIC50: 8.74
--
BINDER: D4 (antibody, V domains shown) VH: EVQLVESGGGLVQPGGSLRLSCAHSGFSFSSYDMSWVRQAPGKGLEWVATISGGGRYTYYADSVKGRFTISRDNSKNTLYLQMNSLRAEDTAVYYCASNYYGFDYWGQGTLLTVSS VL: DIQMTQSPSSLSASVGDRVTITCKASQDVGTAVAWYQQKPGKAPKLLIYWASTRHTGVPSRFSGSGSGTDFTLTISSVQPEDFATYYCQQYSSYPWTFGQGTKLEIKR
pIC50: 8.71
--
BINDER: C1.1 (antibody, V domains shown) VH: EVQLVESGGGLVQPGGSLRLSCAASGFTFSNYAMSWVRQAPGKGLEWVAYISNGGGDTHYADSLKGRFTVSRDNSKNTLYLQMNSLRAEDTAVYYCARENYGTSPFVYWGQGTLVTVSS VL: DIQLTQSPSSLSVSVGDRATITCRASESVDNYGISFMNWFQQKPGKAPKLLIYAASNQGSGVPSRFSGSGSGTDFTLTISSMQPEDFATYYCQQSKDVPWTFGQGTKLEIKR
pIC50: 8.92
